Target: Hepatitis C virus serine protease, NS3/NS4A (Hepatitis C virus, UniProt D2K2A8+A3EZI9)
Sequence (D2K2A8 whole entry): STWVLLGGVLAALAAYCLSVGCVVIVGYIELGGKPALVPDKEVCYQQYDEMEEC
Sequence (A3EZI9 whole entry): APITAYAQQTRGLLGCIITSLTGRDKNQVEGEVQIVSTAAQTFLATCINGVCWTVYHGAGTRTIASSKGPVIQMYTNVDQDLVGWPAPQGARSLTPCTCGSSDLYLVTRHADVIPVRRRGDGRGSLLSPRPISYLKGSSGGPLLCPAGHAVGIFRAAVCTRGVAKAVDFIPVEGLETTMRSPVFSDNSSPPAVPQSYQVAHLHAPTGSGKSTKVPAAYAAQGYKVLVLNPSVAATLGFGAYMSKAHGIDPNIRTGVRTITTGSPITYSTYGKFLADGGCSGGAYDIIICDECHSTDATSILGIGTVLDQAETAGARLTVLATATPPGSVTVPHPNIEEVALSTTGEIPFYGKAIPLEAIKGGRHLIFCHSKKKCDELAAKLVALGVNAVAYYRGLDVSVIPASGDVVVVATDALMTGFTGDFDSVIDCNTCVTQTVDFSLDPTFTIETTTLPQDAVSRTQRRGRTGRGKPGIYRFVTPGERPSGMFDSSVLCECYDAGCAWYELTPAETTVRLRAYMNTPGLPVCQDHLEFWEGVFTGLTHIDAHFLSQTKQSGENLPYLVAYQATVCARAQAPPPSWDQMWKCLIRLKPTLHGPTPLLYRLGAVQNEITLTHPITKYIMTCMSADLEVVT
Assay: Inhibitory activity against Hepatitis C NS3/NS4A protease
Value Kind: IC50 (nM)

>>> print(df.to_string())
                                 cpd_smiles  observed_value
0  CC(C)C[C@H](NC(=O)[C@@H](NC(=O)OC(C)(C)C)C(C)C)C(=O)N[C@@H](CC(F)F)C(=O)C(=O)O             460

###

Target: NS3 (Hepatitis C virus, UniProt A3EZJ3)
Assay: Binding affinity for enzyme NS3 protease wild-type
Design: species or system Hepacivirus hominis
The following molecules are shown together with reported Ki values.
Value Kind: Ki (µM)

                                   molecule  observed_value
0  CC(C)C[C@H](NC(=O)C(CCC(=O)O)NC(=O)OC(C)(C)C)C(=O)NC(CC(F)F)C(=O)NCCc1ccccc1Cl (some centres not stated)             7.3
1  CC(C)COC(=O)NC(CCC(=O)O)C(=O)N[C@@H](CC(C)C)C(=O)NC(CC(F)F)C(=O)NCCc1ccc(C(=O)O)cc1Cl (some centres not stated)             0.6
